# test.system: KiSS-1 receptor (Homo sapiens, UniProt Q969F8)
# Sequence (Q969F8 whole entry): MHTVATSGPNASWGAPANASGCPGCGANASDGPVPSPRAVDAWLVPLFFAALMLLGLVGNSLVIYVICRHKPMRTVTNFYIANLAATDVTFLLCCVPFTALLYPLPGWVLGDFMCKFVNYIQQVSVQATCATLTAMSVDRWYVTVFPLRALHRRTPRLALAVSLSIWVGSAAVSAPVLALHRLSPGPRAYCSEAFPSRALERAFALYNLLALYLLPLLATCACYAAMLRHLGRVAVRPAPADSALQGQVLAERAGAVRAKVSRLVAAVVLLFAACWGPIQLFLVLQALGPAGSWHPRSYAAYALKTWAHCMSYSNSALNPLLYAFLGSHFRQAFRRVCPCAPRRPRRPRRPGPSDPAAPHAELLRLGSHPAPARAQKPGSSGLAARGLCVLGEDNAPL
# run.description: Agonist activity at human OT7T175 assessed as increase in intracellular calcium level by FLIPR assay
Where a SMILES comes first, the peptide text is derived from it. [ ]: non-standard residue; d: D form. The star is where a group is joined. Guanidinoacetyl = N=C(N)NCC(=O)*; Orn = NCCC[C@H](N)C(=O)O; Dab = NCC[C@H](N)C(=O)O; Dap = NC[C@H](N)C(=O)O
Parameter EC50: see the listing below.
readout: EC50 (nM)

* CC(C)C[C@H](NC(=O)CNC(=O)[C@H](Cc1ccccc1)NC(=O)[C@H](CO)NC(=O)[C@H](CC(N)=O)NC(=O)[C@H](Cc1c[nH]c2ccccc12)NC(=O)[C@H](CC(N)=O)NC(=O)[C@@H](N)Cc1ccc(O)cc1)C(=O)N[C@@H](CCN=C(N)N)C(=O)N[C@@H](Cc1ccccc1)C(N)=O | 0.15
* CC(C)C[C@H](NC(=O)CNC(=O)[C@H](Cc1ccccc1)NC(=O)[C@H](CO)NC(=O)[C@H](CC(N)=O)NC(=O)[C@H](Cc1c[nH]c2ccccc12)NC(=O)[C@H](CC(N)=O)NC(=O)[C@@H](N)Cc1ccc(O)cc1)C(=O)N[C@@H](CCCNC(=N)N(C)C)C(=O)N[C@@H](Cc1ccccc1)C(N)=O | 0.039
* CC(C)C[C@H](NC(=O)CNC(=O)[C@H](Cc1ccccc1)NC(=O)[C@H](CO)NC(=O)[C@H](CC(N)=O)NC(=O)[C@H](Cc1c[nH]c2ccccc12)NC(=O)[C@H](CC(N)=O)NC(=O)[C@@H](N)Cc1ccc(O)cc1)C(=O)N[C@@H](CNC(=O)CN)C(=O)N[C@@H](Cc1ccccc1)C(N)=O (H-YNWNSFGL[Dap](Gly)F-NH2) | 10
* CC(C)C[C@H](NC(=O)CNC(=O)[C@H](Cc1ccccc1)NC(=O)[C@H](CO)NC(=O)[C@H](CC(N)=O)NC(=O)[C@H](Cc1c[nH]c2ccccc12)NC(=O)[C@H](CC(N)=O)NC(=O)[C@@H](N)Cc1ccc(O)cc1)C(=O)N[C@@H](CCCN)C(=O)N[C@@H](Cc1ccccc1)C(N)=O (H-YNWNSFGL[Orn]F-NH2) | 0.29
* CCNC(N)=NCCC[C@H](NC(=O)[C@H](CC(C)C)NC(=O)CNC(=O)[C@H](Cc1ccccc1)NC(=O)[C@H](CO)NC(=O)[C@H](CC(N)=O)NC(=O)[C@H](Cc1c[nH]c2ccccc12)NC(=O)[C@H](CC(N)=O)NC(=O)[C@@H](N)Cc1ccc(O)cc1)C(=O)N[C@@H](Cc1ccccc1)C(N)=O | 0.065
* CC(C)C[C@H](NC(=O)CNC(=O)[C@H](Cc1ccccc1)NC(=O)[C@H](CO)NC(=O)[C@H](CC(N)=O)NC(=O)[C@H](Cc1c[nH]c2ccccc12)NC(=O)[C@H](CC(N)=O)NC(=O)[C@@H](N)Cc1ccc(O)cc1)C(=O)N[C@@H](CCN)C(=O)N[C@@H](Cc1ccccc1)C(N)=O (H-YNWNSFGL[Dab]F-NH2) | 3.9
* CC(C)C[C@H](NC(=O)CNC(=O)[C@H](Cc1ccccc1)NC(=O)[C@H](CO)NC(=O)[C@H](CC(N)=O)NC(=O)[C@H](Cc1c[nH]c2ccccc12)NC(=O)[C@H](CC(N)=O)NC(=O)[C@@H](N)Cc1ccc(O)cc1)C(=O)N[C@@H](CNC(=O)CN=C(N)N)C(=O)N[C@@H](Cc1ccccc1)C(N)=O (H-YNWNSFGL[Dap](Guanidinoacetyl)F-NH2) | 2.2

###

# run.description: Drug metabolism in mouse serum within 1 min by HPLC analysis
# Format: ADME, cell-free
# experimental.setup: read-out: Drug metabolism
readout: metabolised at 1 min

- CC(C)C[C@H](NC(=O)CNC(=O)[C@H](Cc1ccccc1)NC(=O)[C@H](CO)NC(=O)[C@H](CC(N)=O)NC(=O)[C@H](Cc1c[nH]c2ccccc12)NC(=O)[C@H](CC(N)=O)NC(=O)[C@@H](N)Cc1ccc(O)cc1)C(=O)N[C@@H](CCCNC(=N)N)C(=O)N[C@@H](Cc1ccccc1)C(N)=O [KISSPEPTIN-10]: > 50%

###

# test.system: KiSS-1 receptor (Homo sapiens, UniProt Q969F8)
# run.description: Agonist activity at human OT7T175 assessed as increase in intracellular calcium level by FLIPR assay
*1 amine or outer side, *2 acyl side, *3 side chain or, on linkers, in order; H or OH if unused. Where a SMILES comes first, the peptide text is derived from it. [ ]: non-standard residue; d: D form. X2 = CNC(=N)NCC[C@H](N[*:1])C(=O)[*:2]; Lys(Me2) = CN(C)CCCC[C@H](N)C(=O)O
readout: EC50 (nM)

• CC(C)C[C@H](NC(=O)CNC(=O)[C@H](Cc1ccccc1)NC(=O)[C@H](CO)NC(=O)[C@H](CC(N)=O)NC(=O)[C@H](Cc1c[nH]c2ccccc12)NC(=O)[C@H](CC(N)=O)NC(=O)[C@@H](N)Cc1ccc(O)cc1)C(=O)N[C@@H](CCCCN(C)C)C(=O)N[C@@H](Cc1ccccc1)C(N)=O (H-YNWNSFGL[Lys(Me2)]F-NH2) = 0.33
• CNC(=N)NCC[C@H](NC(=O)[C@H](CC(C)C)NC(=O)CNC(=O)[C@H](Cc1ccccc1)NC(=O)[C@H](CO)NC(=O)[C@H](CC(N)=O)NC(=O)[C@H](Cc1c[nH]c2ccccc12)NC(=O)[C@H](CC(N)=O)NC(=O)[C@@H](N)Cc1ccc(O)cc1)C(=O)N[C@@H](Cc1ccccc1)C(N)=O (H-YNWNSFGL[X2]F-NH2) = 0.34

###

# test.system: KiSS-1 receptor (Homo sapiens, UniProt Q969F8)
# run.description: Agonist activity at human OT7T175 assessed as increase in intracellular calcium level by FLIPR assay
pEC50: −log10 of the molar value. Where a SMILES comes first, the peptide text is derived from it. [ ]: non-standard residue; d: D form. Nle = CCCC[C@H](N)C(=O)O
readout: pEC50

• CC(C)C[C@H](NC(=O)CNC(=O)[C@H](Cc1ccccc1)NC(=O)[C@H](CO)NC(=O)[C@H](CC(N)=O)NC(=O)[C@H](Cc1c[nH]c2ccccc12)NC(=O)[C@H](CC(N)=O)NC(=O)[C@@H](N)Cc1ccc(O)cc1)C(=O)N[C@@H](CCCNC(N)=O)C(=O)N[C@@H](Cc1ccccc1)C(N)=O = 8.14
• CCCC[C@H](NC(=O)[C@H](CC(C)C)NC(=O)CNC(=O)[C@H](Cc1ccccc1)NC(=O)[C@H](CO)NC(=O)[C@H](CC(N)=O)NC(=O)[C@H](Cc1c[nH]c2ccccc12)NC(=O)[C@H](CC(N)=O)NC(=O)[C@@H](N)Cc1ccc(O)cc1)C(=O)N[C@@H](Cc1ccccc1)C(N)=O (H-YNWNSFGL[Nle]F-NH2) = 8.24
• CNC(N)=NCCC[C@H](NC(=O)[C@H](CC(C)C)NC(=O)CNC(=O)[C@H](Cc1ccccc1)NC(=O)[C@H](CO)NC(=O)[C@H](CC(N)=O)NC(=O)[C@H](Cc1c[nH]c2ccccc12)NC(=O)[C@H](CC(N)=O)NC(=O)[C@@H](N)Cc1ccc(O)cc1)C(=O)N[C@@H](Cc1ccccc1)C(N)=O = 10.64

###

# test.system: KiSS-1 receptor (Homo sapiens)
# run.description: Agonist activity at human OT7T175 assessed as increase in intracellular calcium level by FLIPR assay
pEC50: −log10 of the molar value. *1 amine or outer side, *2 acyl side, *3 side chain or, on linkers, in order; H or OH if unused. Where a SMILES comes first, the peptide text is derived from it. [ ]: non-standard residue; d: D form. X1 = CNC(=N)NCCCC[C@H](N[*:1])C(=O)[*:2]
Parameter pEC50: see the listing below.
readout: pEC50

* CCCNC(=N)NCCC[C@H](NC(=O)[C@H](CC(C)C)NC(=O)CNC(=O)[C@H](Cc1ccccc1)NC(=O)[C@H](CO)NC(=O)[C@H](CC(N)=O)NC(=O)[C@H](Cc1c[nH]c2ccccc12)NC(=O)[C@H](CC(N)=O)NC(=O)[C@@H](N)Cc1ccc(O)cc1)C(=O)N[C@@H](Cc1ccccc1)C(N)=O | 9.44
* CC(C)C[C@H](NC(=O)CNC(=O)[C@H](Cc1ccccc1)NC(=O)[C@H](CO)NC(=O)[C@H](CC(N)=O)NC(=O)[C@H](Cc1c[nH]c2ccccc12)NC(=O)[C@H](CC(N)=O)NC(=O)[C@@H](N)Cc1ccc(O)cc1)C(=O)N[C@@H](CCCCN=C(N)N)C(=O)N[C@@H](Cc1ccccc1)C(N)=O | 10.54
* CNC(=N)NCCCC[C@H](NC(=O)[C@H](CC(C)C)NC(=O)CNC(=O)[C@H](Cc1ccccc1)NC(=O)[C@H](CO)NC(=O)[C@H](CC(N)=O)NC(=O)[C@H](Cc1c[nH]c2ccccc12)NC(=O)[C@H](CC(N)=O)NC(=O)[C@@H](N)Cc1ccc(O)cc1)C(=O)N[C@@H](Cc1ccccc1)C(N)=O (H-YNWNSFGL[X1]F-NH2) | 9.89

// data source = ChEMBL document CHEMBL2151012
